Published IC50 for High affinity nerve growth factor receptor (Homo sapiens), assembled from different documents, is shown next.
MEASUREMENT_TYPE: IC50

{"MOLECULE": "COCCOc1nc(C)ccc1NC(=O)Nc1c(C)c(-c2cnn(C)c2)nn1-c1ccccc1", "MEASURED_TARGET": "High affinity nerve growth factor receptor (Homo sapiens)", "RECORDED_MEASUREMENT": "1000 to 10000 nM"}
{"MOLECULE": "CNC(=O)c1ccc(-c2cc(OC3CCOCC3)c3c(N)n[nH]c3c2)cc1N1CCN(CC(F)(F)C(F)(F)F)CC1", "MEASURED_TARGET": "High affinity nerve growth factor receptor (Homo sapiens)", "RECORDED_MEASUREMENT": "17.8 nM"}
{"MOLECULE": "COCCN1C[C@@H](NC(=O)Nc2c(C(N)=O)c(C(F)(F)F)nn2-c2ccccc2)[C@H](c2ccc(F)c(F)c2)C1", "MEASURED_TARGET": "High affinity nerve growth factor receptor (Homo sapiens)", "RECORDED_MEASUREMENT": "< 100 nM"}
{"MOLECULE": "C[C@@H]1CCn2cc(F)cc(c2=O)N2CCCN2c2ccn3ncc(c3n2)C(=O)N1", "MEASURED_TARGET": "High affinity nerve growth factor receptor (Homo sapiens)", "RECORDED_MEASUREMENT": "> 1000 nM"}
{"MOLECULE": "COCCN1C[C@@H](NC(=O)Nc2nc(-c3ccccc3)nn2C)[C@H](c2ccc(F)c(F)c2)C1", "MEASURED_TARGET": "High affinity nerve growth factor receptor (Homo sapiens)", "RECORDED_MEASUREMENT": "100 to 1000 nM"}
{"MOLECULE": "COCCN1C[C@@H](NC(=O)Nc2cc(C(C)C)nn2-c2ccccc2)[C@H](c2ccc(F)cc2)C1 (relative stereo)", "MEASURED_TARGET": "High affinity nerve growth factor receptor (Homo sapiens)", "RECORDED_MEASUREMENT": "< 100 nM"}
{"MOLECULE": "CCc1nn(-c2ccccc2)c(NC(=O)N[C@@H]2CN(CCOC)C[C@H]2c2ccc(F)c(F)c2)c1C(N)=O", "MEASURED_TARGET": "High affinity nerve growth factor receptor (Homo sapiens)", "RECORDED_MEASUREMENT": "< 100 nM"}
